- experiment summary: Volume of distribution at steady state in rat at 1 mg/kg, iv
- Type: ADME, organism-based
- Parameters: dose 1 mg/kg, route intravenous
- condition label: in vivo, read-out: Vdss
readout: Vd (L/kg)
One number for each entry, in L/kg.

Query: Vd; subject: CS(=O)(=O)N(c1ccccc1)c1cc(C(=O)N[C@@H](Cc2ccccc2)[C@H](O)CNCc2cccc(C(F)(F)F)c2)cc(C2CCCC2)c1 9.3

* * *

- experiment summary: Blood clearance in rat at 1 mg/kg, iv
- Format: ADME, organism-based
- Parameters: dose 1 mg/kg, route intravenous
- condition label: whole blood
readout: clearance (mL/min/kg)
Give bare numbers, in mL/min/kg.

Query: clearance; subject: CS(=O)(=O)N(c1ccccc1)c1cc(C(=O)N[C@@H](Cc2ccccc2)[C@H](O)CNCc2cccc(C(F)(F)F)c2)cc(C2CCCC2)c1 76

* * *

- experiment summary: Half life in rat at 1 mg/kg, iv
- Assay type: ADME, organism-based
- Design: dose 1 mg/kg, route intravenous
- condition label: in vivo
readout: half-life (min)
Answers are plain numbers, in min.

Query: half-life; subject: CS(=O)(=O)N(c1ccccc1)c1cc(C(=O)N[C@@H](Cc2ccccc2)[C@H](O)CNCc2cccc(C(F)(F)F)c2)cc(C2CCCC2)c1 42

Reference source: ChEMBL document CHEMBL1208699
